Origin of measurements: ChEMBL document CHEMBL1157539

Test system: Plasmodium falciparum
Assay: GSK_TCMDC: Inhibition of Plasmodium falciparum Dd2 in whole red blood cells, using parasite LDH activity as an index of growth. Test compounds present at 2uM
Assay type: functional
parameterMeasured: Inhibition (%)
Please state the figure in %; there is no need to write the unit.

Input: Endpoint output: Inhibition of Cc1nnc2sc(-c3cccc(NC(=O)c4ccc(N5CCCCC5)c([N+](=O)[O-])c4)c3)nn12 . Value?
Output: 20

Input: Item: COc1ccc(CNc2nc(NCc3ccc(C(F)(F)F)cc3)c3cc(OC)c(OC)cc3n2)cc1OC
Output: 100

Input: Again, but for Cc1[nH]c(C)c(-c2ccc(-c3ccc(OC(F)(F)F)cc3)cc2)c(=O)c1Cl
Output: 97

Input: Another: CCN(CC)S(=O)(=O)c1ccc(CCOCCCCCNCC(O)c2cc(Cl)c(N)c(Cl)c2)s1.O=C(O)/C=C/C(=O)O (centres undefined)
Output: 80
